Biological target: T1, calcium/calmodulin-dependent serine protein kinase (CASK) PDZ domain (UniProt O14936 489-564)
T1 construct: calcium/calmodulin-dependent serine protein kinase (CASK), PDZ domain; The methods elute GST proteins with glutathione; TEV cleavage is told only for crystallography; source: E. coli Rosetta (DE3), purified (glutathione agarose)
T1 sequence (looked up): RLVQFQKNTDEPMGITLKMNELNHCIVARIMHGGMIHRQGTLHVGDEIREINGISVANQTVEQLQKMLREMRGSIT
Assay: BLI; Octet Red 96; 50 nM biotin-labeled α1D-CT peptide immobilised on streptavidin probes, then biocytin; serial dilutions of purified PDZ proteins as analytes until steady state; 20 mM Tris-HCl pH 8.0, 200 mM NaCl, 0.1% bovine serum albumin
Conditions: both partners purified
Ends that are not written are not given here.
observation type: Kd (nM)
Numbers only, in nM.

Challenge: Given the entry GATCQAYELADYSNLRETDI (peptide, UniProt P25100 553-572, looked up, also: biotin label (position not given here), α1D-adrenergic receptor, distal (last) 20 amino acids of the C-terminus; also called α1D-CT; α1D-AR C-terminal PDZ ligand; source: synthetic peptide, bought: BioMatik) [biotin-labeled peptide containing the last 20 amino acids of the α1D-adrenergic receptor C-terminus] , report its measured Kd.
Response given: 1150
